# Test system: JAK2(JH1domain-catalytic)
# DETAILS: Compound Concentration (nM):1000;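 note: KINOMEscan scanMAX binding as percent activity remaining versus control; lower means stronger binding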

>  <COMPOUND>
C/C(Nc1ccc(S(N)(=O)=O)cc1)=C1/C(=O)Nc2ccccc21 [GW335962X]

>  <SYSTEM_TESTED>
JAK2(JH1domain-catalytic)

>  <Percent Control (%)>
73

$$$$
>  <COMPOUND>
CC(C)COC(=O)c1ccc2c(c1)/C(=C/Nc1ccc(S(N)(=O)=O)cc1)C(=O)N2 [GW416981X]

>  <SYSTEM_TESTED>
JAK2(JH1domain-catalytic)

>  <Percent Control (%)>
63

$$$$
>  <COMPOUND>
Cl.O=C(Nc1ccc(Oc2ccc3[nH]c(NC(=O)c4ccccc4)nc3c2)cc1)Nc1cc(C(F)(F)F)ccc1F [GW709042A]

>  <SYSTEM_TESTED>
JAK2(JH1domain-catalytic)

>  <Percent Control (%)>
100

$$$$
>  <COMPOUND>
C[C@@H](Oc1cc(-n2cnc3ccc(OC4CCN(C)CC4)cc32)sc1C(N)=O)c1ccccc1Cl [GSK579289A]

>  <SYSTEM_TESTED>
JAK2(JH1domain-catalytic)

>  <Percent Control (%)>
75

$$$$

---

Below, each of the compounds is paired with its reported Percent Control value.
# Test system: FYN
# DETAILS: Compound Concentration (nM):1000
PROPERTY: Percent Control (%)

>  <COMPOUND>
COc1cc(/C=N/Nc2ncnc3[nH]ncc23)ccc1O [GW578748X]

>  <UNIT_ANNOTATION>
%

>  <OBSERVED_RESULT>
92

$$$$
>  <COMPOUND>
Cl.c1ccc(Cc2nc3ccc(Nc4ncnc5ccccc45)cc3[nH]2)cc1 [GR269666A]

>  <UNIT_ANNOTATION>
%

>  <OBSERVED_RESULT>
100

$$$$
>  <COMPOUND>
CC(C)COC(=O)c1ccc2c(c1)/C(=C/Nc1ccc(S(N)(=O)=O)cc1)C(=O)N2 [GW416981X]

>  <UNIT_ANNOTATION>
%

>  <OBSERVED_RESULT>
98

$$$$
>  <COMPOUND>
O=C(Nc1n[nH]c2nc(-c3ccc(O)cc3)c(Br)cc12)C1CC1 [SB-725317]

>  <UNIT_ANNOTATION>
%

>  <OBSERVED_RESULT>
100

$$$$
>  <COMPOUND>
COc1cccc(-c2c[nH]c3c(N/N=C/c4ccncc4)ncnc23)c1 [GW814408X]

>  <UNIT_ANNOTATION>
%

>  <OBSERVED_RESULT>
66

$$$$
>  <COMPOUND>
O=C1Nc2ccc(C(=O)c3ccco3)cc2C1=Cc1cc(Cl)c(O)c(Cl)c1 [GW406108X]

>  <UNIT_ANNOTATION>
%

>  <OBSERVED_RESULT>
92

$$$$
>  <COMPOUND>
COc1cc(N2CCN(C(C)C)CC2)ccc1Nc1nc(Nc2ccc(F)cc2C(=O)NC[C@@H](O)CO)c2cc[nH]c2n1 [GSK1392956A]

>  <UNIT_ANNOTATION>
%

>  <OBSERVED_RESULT>
100

$$$$
>  <COMPOUND>
C[C@@H](Oc1cc(-n2cnc3ccc(OC4CCN(C)CC4)cc32)sc1C(N)=O)c1ccccc1Cl [GSK579289A]

>  <UNIT_ANNOTATION>
%

>  <OBSERVED_RESULT>
86

$$$$
>  <COMPOUND>
COC(=O)Nc1nc2ccc(Oc3ccc(NC(=O)Nc4cc(C(F)(F)F)ccc4F)cc3)cc2s1.Cl [GW693917A]

>  <UNIT_ANNOTATION>
%

>  <OBSERVED_RESULT>
52

$$$$
>  <COMPOUND>
CN(C)c1cc2c(Nc3ccc4c(cnn4Cc4ccccc4)c3)ncnc2cn1 [GW282974X]

>  <UNIT_ANNOTATION>
%

>  <OBSERVED_RESULT>
90

$$$$
>  <COMPOUND>
NS(=O)(=O)c1ccc(N/N=C2\C(=O)Nc3ccc(C(=O)NCCc4c[nH]cn4)cc32)cc1 [GW300660X]

>  <UNIT_ANNOTATION>
%

>  <OBSERVED_RESULT>
100

$$$$

---

# maps each entry to its Percent Control
# Test system: RSK1(Kin.Dom.2-C-terminal)
# Construct: gene RPS6KA1
# DETAILS: Compound Concentration (nM):1000
PROPERTY: Percent Control (%)

>  <MOLECULE>
CN1CCN(C(=O)c2ccc(NC(=O)Nc3ccc(N(C)c4ccnc(Nc5ccc(CS(C)(=O)=O)cc5)n4)cc3)cc2)CC1.Cl [GW830263A]

>  <SYSTEM_TESTED>
RSK1(Kin.Dom.2-C-terminal)

>  <OBSERVED_RESULT>
93

$$$$
>  <MOLECULE>
Nc1ncnc2occ(-c3ccc(NC(=O)Nc4cc(C(F)(F)F)ccc4F)cc3)c12 [GW770249X]

>  <SYSTEM_TESTED>
RSK1(Kin.Dom.2-C-terminal)

>  <OBSERVED_RESULT>
100

$$$$
>  <MOLECULE>
CC1=C(C(=O)Nc2ccc3[nH]ncc3c2)C(c2ccc3ccccc3c2)CC(=O)N1 (stereo not drawn) [GSK270822A]

>  <SYSTEM_TESTED>
RSK1(Kin.Dom.2-C-terminal)

>  <OBSERVED_RESULT>
99

$$$$
>  <MOLECULE>
COc1ccc(COc2ccc(Cc3cnc(N)nc3N)cc2OC)cc1 [GW632580X]

>  <SYSTEM_TESTED>
RSK1(Kin.Dom.2-C-terminal)

>  <OBSERVED_RESULT>
100

$$$$
>  <MOLECULE>
COc1cc(N2CCN(C(C)C)CC2)ccc1Nc1nc(Nc2ccc(F)cc2C(=O)NC[C@@H](O)CO)c2cc[nH]c2n1 [GSK1392956A]

>  <SYSTEM_TESTED>
RSK1(Kin.Dom.2-C-terminal)

>  <OBSERVED_RESULT>
78

$$$$
>  <MOLECULE>
Cl.O=S1CCN(Cc2ccc(-c3ccc4ncnc(Nc5ccc(OCc6ccccc6)c(F)c5)c4c3)o2)CC1 [GW576924A]

>  <SYSTEM_TESTED>
RSK1(Kin.Dom.2-C-terminal)

>  <OBSERVED_RESULT>
100

$$$$
>  <MOLECULE>
COC(=O)Nc1nc2ccc(Oc3ccc(NC(=O)Nc4cc(C(F)(F)F)ccc4F)cc3)cc2s1.Cl [GW693917A]

>  <SYSTEM_TESTED>
RSK1(Kin.Dom.2-C-terminal)

>  <OBSERVED_RESULT>
94

$$$$
>  <MOLECULE>
C[C@@H](Oc1cc(-n2cnc3ccc(OC4CCN(C)CC4)cc32)sc1C(N)=O)c1ccccc1Cl [GSK579289A]

>  <SYSTEM_TESTED>
RSK1(Kin.Dom.2-C-terminal)

>  <OBSERVED_RESULT>
86

$$$$
>  <MOLECULE>
NS(=O)(=O)c1ccc(Nc2ncc(-c3ccccc3)o2)cc1 [GW572399X]

>  <SYSTEM_TESTED>
RSK1(Kin.Dom.2-C-terminal)

>  <OBSERVED_RESULT>
100

$$$$
>  <MOLECULE>
Cl.c1ccc(Cc2nc3ccc(Nc4ncnc5ccccc45)cc3[nH]2)cc1 [GR269666A]

>  <SYSTEM_TESTED>
RSK1(Kin.Dom.2-C-terminal)

>  <OBSERVED_RESULT>
100

$$$$
>  <MOLECULE>
CCn1c(-c2nonc2N)nc2c(C#CC(C)(C)O)nc(OCCNC)cc21.Cl [GSK949675]

>  <SYSTEM_TESTED>
RSK1(Kin.Dom.2-C-terminal)

>  <OBSERVED_RESULT>
100

$$$$
>  <MOLECULE>
COc1cc(C=NNc2ncnc3c2cnn3-c2ccccc2)ccc1O [GW513184X]

>  <SYSTEM_TESTED>
RSK1(Kin.Dom.2-C-terminal)

>  <OBSERVED_RESULT>
100

$$$$
>  <MOLECULE>
COc1ccc2c(-c3ccnc(Nc4cccc(OC(F)(F)F)c4)n3)cnn2n1 [GW810372X]

>  <SYSTEM_TESTED>
RSK1(Kin.Dom.2-C-terminal)

>  <OBSERVED_RESULT>
100

$$$$
>  <MOLECULE>
COc1ccc2cc(-c3c(-c4ccncc4)nc(-c4ccc(S(C)(=O)=O)cc4C)n3C)ccc2c1 [SB-633825]

>  <SYSTEM_TESTED>
RSK1(Kin.Dom.2-C-terminal)

>  <OBSERVED_RESULT>
97

$$$$
>  <MOLECULE>
COc1cc(/C=N/Nc2ncnc3[nH]ncc23)ccc1O [GW578748X]

>  <SYSTEM_TESTED>
RSK1(Kin.Dom.2-C-terminal)

>  <OBSERVED_RESULT>
100

$$$$
>  <MOLECULE>
NS(=O)(=O)c1ccc(N/N=C2\C(=O)Nc3ccc(C(=O)NCCc4c[nH]cn4)cc32)cc1 [GW300660X]

>  <SYSTEM_TESTED>
RSK1(Kin.Dom.2-C-terminal)

>  <OBSERVED_RESULT>
100

$$$$
>  <MOLECULE>
COc1cc(C)c(N(C)C(=O)CN(C)C)cc1Nc1nc(Nc2cccc(F)c2C(N)=O)c2cc[nH]c2n1 [GSK2219385]

>  <SYSTEM_TESTED>
RSK1(Kin.Dom.2-C-terminal)

>  <OBSERVED_RESULT>
96

$$$$
>  <MOLECULE>
O=C1Nc2ccc(C(=O)c3ccco3)cc2C1=Cc1cc(Cl)c(O)c(Cl)c1 [GW406108X]

>  <SYSTEM_TESTED>
RSK1(Kin.Dom.2-C-terminal)

>  <OBSERVED_RESULT>
16

$$$$
>  <MOLECULE>
Cl.O=C(O[C@H]1CN[C@H](C#Cc2cc3ncnc(Nc4ccc5c(cnn5Cc5ccccc5)c4)c3s2)C1)N1CCOCC1 [GSK200398A]

>  <SYSTEM_TESTED>
RSK1(Kin.Dom.2-C-terminal)

>  <OBSERVED_RESULT>
97

$$$$
>  <MOLECULE>
NS(=O)(=O)c1ccc(N/N=C2\C(=O)Nc3ccc(Cl)cc32)cc1 [GW280670X]

>  <SYSTEM_TESTED>
RSK1(Kin.Dom.2-C-terminal)

>  <OBSERVED_RESULT>
100

$$$$
>  <MOLECULE>
CCc1ccc(Oc2nccc(-c3c(-c4ccc(F)cc4)ncn3C3CCNCC3)n2)cc1 [SB-242719]

>  <SYSTEM_TESTED>
RSK1(Kin.Dom.2-C-terminal)

>  <OBSERVED_RESULT>
77

$$$$
